EC50 values for the molecules below.
Molecular target: JAK1 (aa 850-1154, catalytic domain, GST-tag) (Homo sapiens, UniProt P23458)
Construct: JAK1 (aa 850-1154) and TYK2 (aa 871-1187) are expressed with an N-terminally fused GST-tag; GST (N); purchased Carna Biosciences, Inc; host or cells: baculovirus expression system
Sequence (P23458 850-1154): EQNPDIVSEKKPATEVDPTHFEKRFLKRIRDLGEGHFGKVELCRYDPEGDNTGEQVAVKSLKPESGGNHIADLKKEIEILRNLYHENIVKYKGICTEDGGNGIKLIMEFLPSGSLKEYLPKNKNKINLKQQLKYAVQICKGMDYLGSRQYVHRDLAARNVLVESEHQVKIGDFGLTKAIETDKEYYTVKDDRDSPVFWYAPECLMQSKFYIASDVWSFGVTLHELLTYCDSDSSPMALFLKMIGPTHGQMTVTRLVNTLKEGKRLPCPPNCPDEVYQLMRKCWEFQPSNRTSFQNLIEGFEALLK
Test: JAK kinase assay (HTRF, phosphorylation of TK substrate-biotin), JAK1
Format: biochemical
Details: HTRF assay, ATP at Km (7 μM); read-out: JAK1 kinase inhibitory activity (EC50 indicator)

- smiles repr: "N#CCc1cccc(CC(=O)N2CCN(c3nc(N)nc4[nH]ccc34)CC23CC3)c1"
  assay target: "JAK1 (aa 850-1154, catalytic domain, GST-tag) (Homo sapiens, UniProt P23458)"
  EC50: "0.1 to 0.5 µM"
- smiles repr: "COc1cnc2[nH]ccc2c1N1CCN(C(=O)c2cnccn2)C2(CC2)C1"
  assay target: "JAK1 (aa 850-1154, catalytic domain, GST-tag) (Homo sapiens, UniProt P23458)"
  EC50: "> 0.5 µM"
- smiles repr: "O=C(Cc1cc(Br)cs1)N1CCN(c2ncnc3[nH]ccc23)CC12CC2"
  assay target: "JAK1 (aa 850-1154, catalytic domain, GST-tag) (Homo sapiens, UniProt P23458)"
  EC50: "< 0.1 µM"

The record that follows has no EC50 shown yet.
Quick one: EC50 for COc1cnc2[nH]ccc2c1N1CCN(C(=O)c2csc3ccccc23)C2(CC2)C1 ? 0.1 to 0.5 µM

====

Molecular target: TYK2 (aa 871-1187, catalytic domain, GST-tag) (Homo sapiens, UniProt P29597)
Construct: JAK1 (aa 850-1154) and TYK2 (aa 871-1187) are expressed with an N-terminally fused GST-tag; GST (N); purchased Carna Biosciences, Inc; host or cells: baculovirus expression system
Sequence (P29597 871-1187): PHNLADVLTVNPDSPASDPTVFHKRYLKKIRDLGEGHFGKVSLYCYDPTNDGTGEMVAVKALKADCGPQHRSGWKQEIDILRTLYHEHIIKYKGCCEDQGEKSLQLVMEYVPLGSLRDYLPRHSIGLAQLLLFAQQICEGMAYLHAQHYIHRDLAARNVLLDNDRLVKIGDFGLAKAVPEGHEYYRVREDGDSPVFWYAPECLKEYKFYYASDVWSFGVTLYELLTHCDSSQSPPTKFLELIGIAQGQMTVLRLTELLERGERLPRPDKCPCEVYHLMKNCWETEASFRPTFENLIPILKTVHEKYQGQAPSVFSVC
Experiment: JAK kinase assay (HTRF, phosphorylation of TK substrate-biotin), TYK2
Format: biochemical
Settings: ATP at Km (13 μM); read-out: TYK2 kinase inhibitory activity (EC50 indicator)
pEC50: −log10 of the molar value.
measure: pEC50

Example cases with answers are listed next.
- molecule: "CS(=O)(=O)CCC(=O)N1CCN(c2ncnc3[nH]ccc23)CC12CC2"
  pEC50: "< 6.30"
- molecule: "O=C(Cc1cccnc1)N1CCN(c2ncnc3[nH]ccc23)CC12CC2"
  pEC50: "< 6.30"
- molecule: "CC1CN(C(=O)c2cccc(C#N)c2)C2(CC2)CN1c1ncnc2[nH]ccc12 (centres unmarked)"
  pEC50: "6.30 to 7.00"

Requested read-out: pEC50. Entry: O=C(Cc1cccs1)N1CCN(c2ncnc3[nH]ccc23)CC12CC2 6.30 to 7.00

Please report the recorded pEC50 for O=C(c1cnc2ccccc2n1)N1CCN(c2ncnc3[nH]ccc23)CC12CC2 . > 7.00

Data request, read-out pEC50, for N#CC1(C(=O)N2CCN(c3ncnc4[nH]ccc34)CC23CC3)CC1 6.30 to 7.00

====

Target: TYK2 (aa 871-1187, catalytic domain, GST-tag) (Homo sapiens, UniProt P29597)
Construct: JAK1 (aa 850-1154) and TYK2 (aa 871-1187) are expressed with an N-terminally fused GST-tag; GST (N); purchased Carna Biosciences, Inc; host or cells: baculovirus expression system
Test: JAK kinase assay (HTRF, phosphorylation of TK substrate-biotin), TYK2
Format: biochemical
Details: ATP at Km (13 μM); read-out: TYK2 kinase inhibitory activity (EC50 indicator)
pEC50: −log10 of the molar value.
Consider the following compounds and their measured pEC50 readings.

- smiles repr: "O=C1CCC(C(=O)N2CCN(c3ncnc4[nH]ccc34)CC23CC3)CC1"
  assay target: "TYK2 (aa 871-1187, catalytic domain, GST-tag) (Homo sapiens, UniProt P29597)"
  pEC50: "6.30 to 7.00"
- smiles repr: "NS(=O)(=O)c1ccc(CC(=O)N2CCN(c3ncnc4[nH]ccc34)CC23CC3)cc1"
  assay target: "TYK2 (aa 871-1187, catalytic domain, GST-tag) (Homo sapiens, UniProt P29597)"
  pEC50: "< 6.30"
- smiles repr: "O=C(c1ccc(C(F)(F)F)cc1)N1CCN(c2ncnc3[nH]ccc23)CC12CC2"
  assay target: "TYK2 (aa 871-1187, catalytic domain, GST-tag) (Homo sapiens, UniProt P29597)"
  pEC50: "< 6.30"

Field: next compound
For CS(=O)(=O)c1cccc(CC(=O)N2CCN(c3ncnc4[nH]ccc34)CC23CC3)c1 , what is its reported pEC50? < 6.30
